Target: Washed platelets (Canis lupus familiaris, UniProt A0A8I3N5G5+A0A8I3PMU9)
Sequence (A0A8I3N5G5 1-1047): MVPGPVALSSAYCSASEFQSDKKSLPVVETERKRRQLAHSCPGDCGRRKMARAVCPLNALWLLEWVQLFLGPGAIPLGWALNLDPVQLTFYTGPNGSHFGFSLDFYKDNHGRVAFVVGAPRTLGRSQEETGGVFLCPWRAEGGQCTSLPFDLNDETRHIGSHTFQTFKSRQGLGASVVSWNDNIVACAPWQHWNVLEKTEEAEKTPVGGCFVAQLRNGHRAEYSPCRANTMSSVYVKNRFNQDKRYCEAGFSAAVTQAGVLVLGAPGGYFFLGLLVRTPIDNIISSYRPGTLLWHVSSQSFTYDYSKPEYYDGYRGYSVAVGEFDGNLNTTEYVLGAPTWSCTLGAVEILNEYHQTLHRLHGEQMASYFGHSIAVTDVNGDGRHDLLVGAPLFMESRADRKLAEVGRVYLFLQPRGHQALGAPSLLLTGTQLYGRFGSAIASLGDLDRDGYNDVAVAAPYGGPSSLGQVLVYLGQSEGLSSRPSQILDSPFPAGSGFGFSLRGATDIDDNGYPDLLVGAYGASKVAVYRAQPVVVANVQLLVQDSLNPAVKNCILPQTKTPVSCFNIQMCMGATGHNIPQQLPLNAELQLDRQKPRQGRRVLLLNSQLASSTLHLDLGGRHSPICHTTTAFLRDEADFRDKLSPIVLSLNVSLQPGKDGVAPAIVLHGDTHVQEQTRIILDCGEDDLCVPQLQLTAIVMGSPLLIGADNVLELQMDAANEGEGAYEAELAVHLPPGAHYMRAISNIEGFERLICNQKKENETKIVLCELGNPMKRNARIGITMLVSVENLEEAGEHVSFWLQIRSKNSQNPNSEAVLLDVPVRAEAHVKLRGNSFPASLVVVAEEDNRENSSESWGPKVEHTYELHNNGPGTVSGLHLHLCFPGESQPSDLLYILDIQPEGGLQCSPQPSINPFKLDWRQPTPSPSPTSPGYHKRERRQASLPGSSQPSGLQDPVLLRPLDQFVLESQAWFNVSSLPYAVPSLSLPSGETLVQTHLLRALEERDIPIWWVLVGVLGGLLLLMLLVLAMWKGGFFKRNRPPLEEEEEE
Sequence (A0A8I3PMU9 1-919): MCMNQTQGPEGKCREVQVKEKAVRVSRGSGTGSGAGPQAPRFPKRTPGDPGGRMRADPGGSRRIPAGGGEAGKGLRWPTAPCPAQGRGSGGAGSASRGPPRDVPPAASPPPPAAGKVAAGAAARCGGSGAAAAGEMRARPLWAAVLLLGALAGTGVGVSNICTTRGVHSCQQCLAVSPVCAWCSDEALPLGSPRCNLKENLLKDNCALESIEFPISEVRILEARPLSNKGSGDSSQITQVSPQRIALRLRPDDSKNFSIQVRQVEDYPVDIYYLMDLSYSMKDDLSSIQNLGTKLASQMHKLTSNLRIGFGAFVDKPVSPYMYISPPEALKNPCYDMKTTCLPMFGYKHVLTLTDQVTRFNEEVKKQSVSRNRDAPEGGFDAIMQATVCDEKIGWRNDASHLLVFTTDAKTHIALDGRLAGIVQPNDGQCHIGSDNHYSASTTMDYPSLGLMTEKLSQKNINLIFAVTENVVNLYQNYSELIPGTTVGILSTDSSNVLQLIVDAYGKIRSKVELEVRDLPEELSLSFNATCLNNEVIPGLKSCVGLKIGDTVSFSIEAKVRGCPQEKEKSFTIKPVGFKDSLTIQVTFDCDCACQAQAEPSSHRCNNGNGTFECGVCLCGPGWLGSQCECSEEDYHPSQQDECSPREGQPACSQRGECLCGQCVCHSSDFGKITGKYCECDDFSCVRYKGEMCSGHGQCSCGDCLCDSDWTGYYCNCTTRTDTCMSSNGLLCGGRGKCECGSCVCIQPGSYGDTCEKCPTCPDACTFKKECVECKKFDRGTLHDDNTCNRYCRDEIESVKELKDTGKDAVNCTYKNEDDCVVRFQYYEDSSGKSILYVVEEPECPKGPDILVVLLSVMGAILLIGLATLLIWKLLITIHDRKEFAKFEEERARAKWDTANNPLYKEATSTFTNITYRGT
Experiment: Inhibition of platelet aggregation, WP/Thrombin
Assay type: cell-based
Settings: dog washed platelets, 0.1 unit/ml thrombin, peptide added 3 min. prior to agonist; read-out: Antiaggregatory Activity IC50, μM WP/Thrombin
experimental endpoint: IC50
Reply with a number, then the unit it belongs to.

-- ask What value of IC50 has been reported for the following substance? N^α -Ac-Arg-Gly-Asp-Tyr-NH2 [Example 28]
-- reply 137 µM
